Origin of values: patent US20190367631A1

S/N (MFI over unstained MFI) values by entry
Assayed system: T1, mouse MSR1 on RAW264.7 cells (mouse, UniProt P30204 1-458)
T1 construct: whole, on cells; also called MSR1 positive RAW264.7 cells
T1 sequence (looked up): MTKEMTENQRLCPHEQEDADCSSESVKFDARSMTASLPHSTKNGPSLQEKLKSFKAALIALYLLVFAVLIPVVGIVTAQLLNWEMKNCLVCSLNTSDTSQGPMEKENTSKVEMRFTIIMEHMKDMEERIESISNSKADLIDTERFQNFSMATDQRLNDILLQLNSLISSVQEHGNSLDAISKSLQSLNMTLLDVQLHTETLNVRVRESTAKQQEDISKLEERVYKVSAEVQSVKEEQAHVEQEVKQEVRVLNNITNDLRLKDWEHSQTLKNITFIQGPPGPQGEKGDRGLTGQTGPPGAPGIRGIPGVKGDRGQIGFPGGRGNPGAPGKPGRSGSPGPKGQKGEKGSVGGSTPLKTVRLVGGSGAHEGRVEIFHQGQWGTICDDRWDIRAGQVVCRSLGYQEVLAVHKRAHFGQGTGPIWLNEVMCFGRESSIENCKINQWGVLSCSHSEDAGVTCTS
Assay notes: flow cytometry, RAW264.7 cells
Form field (numeric): enter value without unit.

H1H27736P-N297Q (antibody, human IgG1, V domains shown, human IgG1 Fc with N297Q) VH: EVQLVESGGGLVQPGGSLRLSCAASGFTFSSYAMSWVRQAPGKGLEWVSSISGSGDSTFYTDSVKGRFTISRDISKNTLYLQMNSLRAEDTAVYYCAKDRLLWFGDLISPFHYWGQGTLVTVSS VL: EIVLTQSPGTLSLSPGERATLSCRASQSVSNIYLAWYQQKPAQAPRLLIYGASSRATGIPDRFSVSGSGTDFTLTISRLEPEDFAVYYCQQYGSSPRTFGQGTKVEIKR    1

Now for another entry.
Lab note: H1H27754P-N297Q (antibody, human IgG1, V domains shown, human IgG1 Fc with N297Q) VH: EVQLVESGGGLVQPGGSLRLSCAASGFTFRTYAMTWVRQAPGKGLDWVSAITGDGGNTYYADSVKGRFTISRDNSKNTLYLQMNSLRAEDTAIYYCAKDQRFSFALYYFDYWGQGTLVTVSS VL: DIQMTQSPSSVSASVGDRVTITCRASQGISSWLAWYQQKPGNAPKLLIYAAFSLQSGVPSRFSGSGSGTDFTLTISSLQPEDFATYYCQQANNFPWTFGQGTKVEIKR gave S/N (MFI over unstained MFI) of 1
